These entries and their values trace back to patent US5204311A.

# assay.protocol: Color (Hunter coordinates) of Ni complex, swabbed on Ni-coated receptor (CF) sheet
# Format: physicochemical
# Set-up: key: Hunter a: +a red, -a green
# assay.setup: Ni(II) complex, swab concn. 1%, 45°/0° reflectance, illuminant C (Table 2)
I'd appreciate it if you could supply Hunter Coordinates a values for the items below.
Give bare numbers.

molecular.string	endpoint.result
CCCCCCC=NN=C(N)C(N)=NN=CCCCCCC	-4.2
NC(=NN=Cc1ccco1)C(N)=NN=Cc1ccco1	-10.6
CC(C)(C)c1cc(C=NN=C(N)C(N)=NN=Cc2cc(C(C)(C)C)cc(C(C)(C)C)c2O)c(O)c(C(C)(C)C)c1	-2.1
NC(=NN=Cc1c(O)ccc2ccccc12)C(N)=NN=Cc1c(O)ccc2ccccc12	-6.5
NC(=NN=Cc1cccs1)C(N)=NN=Cc1cccs1	11.2
NC(=NN=C(c1ccccc1)c1ccc(O)cc1O)C(N)=NN=C(c1ccccc1)c1ccc(O)cc1O	-6.0
CC(=NN=C(N)C(N)=NN=C(C)c1ccccc1O)c1ccccc1O	-5.3
NC(=NN=Cc1cc([N+](=O)[O-])ccc1O)C(N)=NN=Cc1cc([N+](=O)[O-])ccc1O	-9.7

Could you now look at the following molecule, please?
Name the recorded Hunter Coordinates a of the item CCOc1cccc(C=NN=C(N)C(N)=NN=Cc2cccc(OCC)c2O)c1O in your answer.
-15.2

* * *

# assay.protocol: Color (Hunter coordinates) of Ni complex, swabbed on Ni-coated receptor (CF) sheet
# Format: physicochemical
# assay.setup: Ni(II) complex, swab concn. 1%, 45°/0° reflectance, illuminant C (Table 2)
Exercise: for every item that follows, state its recorded Hunter Coordinates L.
One number for each entry.

Answered cases to consult:
molecular.string	endpoint.result
NC(=NN=Cc1c(O)ccc2ccccc12)C(N)=NN=Cc1c(O)ccc2ccccc12	86.6
CCOC(=O)CC(C)=NN=C(N)C(N)=NN=C(C)CC(=O)OCC	89.4
CCCCCCC=NN=C(N)C(N)=NN=CCCCCCC	89.9
CCN(CC)c1ccc(C=NN=C(N)C(N)=NN=Cc2ccc(N(CC)CC)cc2O)c(O)c1	80.9
NC(=NN=Cc1cccs1)C(N)=NN=Cc1cccs1	72.6
NC(=NN=Cc1ccco1)C(N)=NN=Cc1ccco1	89.4
NC(=NN=Cc1cc([N+](=O)[O-])ccc1O)C(N)=NN=Cc1cc([N+](=O)[O-])ccc1O	83.9
C=CCc1cccc(C=NN=C(N)C(N)=NN=Cc2cccc(CC=C)c2O)c1O	82.5

// next item, Hunter Coordinates L requested
Consider the molecule COc1cccc(C=NN=C(N)C(N)=NN=Cc2cccc(OC)c2O)c1O and give its recorded Hunter Coordinates L.
86.4

* * *

# assay.protocol: Color (Hunter coordinates) of Ni complex, swabbed on Ni-coated receptor (CF) sheet
# Type: physicochemical
# Set-up: key: Hunter b: +b yellow, -b blue
# assay.setup: Ni(II) complex, swab concn. 1%, 45°/0° reflectance, illuminant C (Table 2)
Given measured Hunter Coordinates b, output Fulfilled if it is greater than or equal to 30 and Not fulfilled if not.

molecular.string	label.value
NC(=NN=Cc1cc([N+](=O)[O-])ccc1O)C(N)=NN=Cc1cc([N+](=O)[O-])ccc1O	Fulfilled
NC(=NN=Cc1ccccc1O)C(N)=NN=Cc1ccccc1O	Fulfilled
NC(=NN=Cc1ccco1)C(N)=NN=Cc1ccco1	Not fulfilled

Is it the case that CC(=NN=C(N)C(N)=NN=C(C)c1ccccc1O)c1ccccc1O has Hunter Coordinates b reaching or exceeding 30?
Not fulfilled

Entry NC(=NN=Cc1cc(Br)ccc1O)C(N)=NN=Cc1cc(Br)ccc1O : is its Hunter Coordinates b no less than 30?
Fulfilled

For this molecule, is measured Hunter Coordinates b 30 or higher? CCCCCCC=NN=C(N)C(N)=NN=CCCCCCC
Not fulfilled

Determine whether this molecule has Hunter Coordinates b no lower than 30: COc1cccc(C=NN=C(N)C(N)=NN=Cc2cccc(OC)c2O)c1O
Fulfilled

Hi team, for C=CCc1cccc(C=NN=C(N)C(N)=NN=Cc2cccc(CC=C)c2O)c1O , is the recorded Hunter Coordinates b at or above 30?
Fulfilled

Exam item: decide whether the reported Hunter Coordinates b for NC(=NN=Cc1ccccn1)C(N)=NN=Cc1ccccn1 is at least 30.
Fulfilled
